Target: Sodium-dependent serotonin transporter (Homo sapiens)
pKi: −log10 of the molar value.
Value type: pKi

* CN1[C@H]2CC[C@@H]1[C@H](C=C(Br)Br)[C@@H](c1ccc(Cl)cc1)C2 | 7.12
* CN1[C@H]2CC[C@@H]1[C@@H](c1cn(CCN3CCCCC3)nn1)[C@@H](c1ccc(Cl)cc1)C2 | 6.86
* Cc1ccc([C@H]2C[C@@H]3CC[C@H]([C@H]2C#Cc2ccccc2)N3C)cc1 | 6.14
* C#C[C@H]1[C@@H](c2ccc(C)cc2)C[C@@H]2CC[C@H]1N2C | 7.27
* CN1[C@H]2CC[C@@H]1[C@@H](C#Cc1ccc(N)cc1)[C@@H](c1ccc(Cl)cc1)C2 | 7.72
* CN1[C@H]2CC[C@@H]1[C@@H](C#Cc1ccc([N+](=O)[O-])cc1)[C@@H](c1ccc(Cl)cc1)C2 | 6.21
* CN1[C@H]2CC[C@@H]1[C@@H](C=C(Br)Br)[C@@H](c1ccc(Cl)cc1)C2 | 8.15
* CN1[C@H]2CC[C@@H]1[C@@H](c1cn(Cc3ccccc3)nn1)[C@@H](c1ccc(Cl)cc1)C2 | 6.79

###

Molecular target: Sodium-dependent dopamine transporter (Homo sapiens, UniProt Q01959)
Sequence (Q01959 whole entry): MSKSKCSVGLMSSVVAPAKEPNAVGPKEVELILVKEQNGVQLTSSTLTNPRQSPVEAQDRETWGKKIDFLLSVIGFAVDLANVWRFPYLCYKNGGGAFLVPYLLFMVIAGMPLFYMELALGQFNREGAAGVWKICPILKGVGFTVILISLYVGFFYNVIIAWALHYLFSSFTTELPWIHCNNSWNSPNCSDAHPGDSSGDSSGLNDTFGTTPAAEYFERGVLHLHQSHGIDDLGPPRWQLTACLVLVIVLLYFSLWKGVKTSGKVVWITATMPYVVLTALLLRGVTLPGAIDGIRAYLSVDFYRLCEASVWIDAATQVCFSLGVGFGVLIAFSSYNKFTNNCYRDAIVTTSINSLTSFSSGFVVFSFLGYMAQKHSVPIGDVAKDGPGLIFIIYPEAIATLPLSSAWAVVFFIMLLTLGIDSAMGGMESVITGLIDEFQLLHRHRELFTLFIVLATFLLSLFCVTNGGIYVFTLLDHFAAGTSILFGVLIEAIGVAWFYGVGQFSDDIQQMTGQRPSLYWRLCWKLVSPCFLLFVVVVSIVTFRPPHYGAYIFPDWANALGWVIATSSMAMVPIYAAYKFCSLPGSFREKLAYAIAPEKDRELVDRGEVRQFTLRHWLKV
Value type: IC50 (nM)

* COC(=O)[C@H]1[C@@H](c2ccccc2)C[C@@H]2CC[C@H]1N2C | 23
* Cc1ccc([C@H]2C[C@@H]3CC[C@H]([C@H]2C#Cc2ccccc2)N3C)cc1 | 0.8
* CN1[C@H]2CC[C@@H]1[C@@H](c1cn(CCN3CCCCC3)nn1)[C@@H](c1ccc(Cl)cc1)C2 | 8
* CN1[C@H]2CC[C@@H]1[C@H](C=C(Br)Br)[C@@H](c1ccc(Cl)cc1)C2 | 1.4
* CN1[C@H]2CC[C@@H]1[C@@H](C#Cc1ccccc1)[C@@H](c1ccc(Cl)cc1)C2 | 0.8

###

Biological target: Sodium-dependent serotonin transporter (Homo sapiens, UniProt P31645)
Sequence (P31645 whole entry): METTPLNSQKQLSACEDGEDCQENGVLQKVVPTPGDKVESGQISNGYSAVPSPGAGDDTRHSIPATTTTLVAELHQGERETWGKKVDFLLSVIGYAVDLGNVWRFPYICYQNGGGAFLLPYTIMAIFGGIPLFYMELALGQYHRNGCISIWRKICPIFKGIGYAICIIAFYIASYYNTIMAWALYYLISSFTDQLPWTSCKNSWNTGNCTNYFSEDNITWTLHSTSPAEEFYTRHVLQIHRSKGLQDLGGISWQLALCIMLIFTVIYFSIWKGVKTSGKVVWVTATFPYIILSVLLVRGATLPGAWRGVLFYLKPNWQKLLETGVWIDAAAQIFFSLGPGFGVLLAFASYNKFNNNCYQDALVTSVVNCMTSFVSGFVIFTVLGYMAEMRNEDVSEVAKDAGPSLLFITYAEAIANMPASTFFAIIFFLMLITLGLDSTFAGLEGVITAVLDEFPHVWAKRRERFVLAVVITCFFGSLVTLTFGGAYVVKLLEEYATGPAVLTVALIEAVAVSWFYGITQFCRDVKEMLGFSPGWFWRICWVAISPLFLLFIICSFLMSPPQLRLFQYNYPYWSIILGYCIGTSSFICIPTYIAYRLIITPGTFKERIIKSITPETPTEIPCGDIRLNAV
Value type: Ki (nM)

* Cc1ccc([C@H]2C[C@@H]3CC[C@H]([C@@H]2C=C(Br)Br)N3C)cc1 | 252
* Cc1ccc([C@H]2C[C@@H]3CC[C@H]([C@H]2C=C(Br)Br)N3C)cc1 | 39
* CN1[C@H]2CC[C@@H]1[C@@H](C#Cc1ccccc1)[C@@H](c1ccc(Cl)cc1)C2 | 81
* C#C[C@H]1[C@@H](c2ccc(Cl)cc2)C[C@@H]2CC[C@H]1N2C | 18

###

Target: Sodium-dependent dopamine transporter (Homo sapiens, UniProt Q01959)
Test: Displacement of [3H]WIN-35428 from dopamine transporter
pIC50: −log10 of the molar value.
Here the recorded pIC50 is given for each entry.
Value type: pIC50

• CN1[C@H]2CC[C@@H]1[C@@H](c1cn(Cc3ccccc3)nn1)[C@@H](c1ccc(Cl)cc1)C2 = 7.33
• C#C[C@H]1[C@@H](c2ccc(C)cc2)C[C@@H]2CC[C@H]1N2C = 7.96
• Cc1ccc([C@H]2C[C@@H]3CC[C@H]([C@@H]2C=C(Br)Br)N3C)cc1 = 8.44
• CN1[C@H]2CC[C@@H]1[C@@H](C#Cc1ccc([N+](=O)[O-])cc1)[C@@H](c1ccc(Cl)cc1)C2 = 9.05
• C#C[C@H]1[C@@H](c2ccc(Cl)cc2)C[C@@H]2CC[C@H]1N2C = 8.44
• CN1[C@H]2CC[C@@H]1[C@@H](C#Cc1ccc(N)cc1)[C@@H](c1ccc(Cl)cc1)C2 = 8.66
• CN1[C@H]2CC[C@@H]1[C@@H](C=C(Br)Br)[C@@H](c1ccc(Cl)cc1)C2 = 9.49
• Cc1ccc([C@H]2C[C@@H]3CC[C@H]([C@H]2C=C(Br)Br)N3C)cc1 = 9.64
